Hey, just so you know, these numbers are from ChEMBL document CHEMBL1138668.

System: HT-29
Assay: Growth inhibitory activity against human HT-29 cell line in presence of Hypoxanthine thymidine(HT)
Format: functional
experimental.readout: GI50

// worked examples, GI50 included
CN(Cc1cnc2nc(N)nc(N)c2n1)c1ccc(C(=O)N[C@@H](CCC(=O)O)C(=O)O)cc1 [METHOTREXATE]; > 50 µM
Nc1ncc(-c2ccc(Cl)c([N+](=O)[O-])c2)cn1; > 50 µM

Proceed to the following item.
Lookup: GI50 / HT-29 / `CCc1nc(N)nc(N)c1-c1ccc2[nH]c(-c3ccc(Cl)cc3)[n+]([O-])c2c1`
> 50 µM
